test system: BCL6 (Homo sapiens, UniProt P41182)
Construct: endogenous in cells; host or cells: T47D breast cancer epithelial cells
test summary: Immunofluorescence protocol for high content imaging of BCL6 (degradation) in T47D cells, 3 days compound treatment
Assay type: cell-based
test parameters: T47D cells, 3 days compound treatment, read-out: Mean Dmax (%)** category
Protocol: Immunofluorescence Protocol for High Content Imaging of BCL6 T47D cells were seeded in 100 μl volume of RPMI1640-10% FBS in a 96-well black/clear bottom plates for adherent lines (Corning #3904). Day 1. T47D breast cancer epithelial cells were seeded at a density so that confluence is ˜70-90% at endpoint. Cells were seeded at 7K/0.1 ml/well the morning prior to the addition of exemplary bifunctional degradation compounds. Day 2. […] Plates were equilibrated to room temperature prior to reading. […]
value type: Dmax

Take a look at these entries with their results.
{"compound": "CNC(=O)COc1cc2cc(Nc3nc(N4CCC(O[C@H]5C[C@H](N6CCN(c7ccc8c(c7C)C(=O)N(C7CCC(=O)NC7=O)C8=O)[C@H](C)C6)C5)CC4)ncc3Cl)ccc2n(C(C)C)c1=O (stereo partly shown) [Compound 193]", "value type": "Dmax", "result": "≥ 70%"}
{"compound": "CNC(=O)COc1cc2cc(Nc3nc(N4CCN(CC5C6CN(c7ccc8c(c7)C(=O)N(C7CCC(=O)NC7=O)C8=O)CC56)CC4)ncc3Cl)ccc2n(C(C)C)c1=O (stereo not shown) [Compound 155]", "value type": "Dmax", "result": "< 50%"}
{"compound": "CNC(=O)COc1cc2cc(Nc3nc(N4CCC(CN5CC6(CCN(c7ccc8c(c7F)CN(C7CCC(=O)NC7=O)C8=O)CC6)C5)CC4)ncc3Cl)ccc2n(C(C)C)c1=O (stereo not shown) [Compound 87]", "value type": "Dmax", "result": "50 to 70%"}
{"compound": "CNC(=O)COc1cc2cc(Nc3nc(N4CCC(O[C@H]5C[C@H](N6CCN(c7ccc8c(c7Cl)CN(C7CCC(=O)NC7=O)C8=O)[C@H](C)C6)C5)CC4)ncc3Cl)ccc2n(C(C)C)c1=O (stereo partly shown) [Compound 202]", "value type": "Dmax", "result": "≥ 70%"}
{"compound": "CNC(=O)COc1cc2cc(Nc3nc(N4CCC(CN5CCC6(CC5)CN(c5cc(F)c7c(c5)CN(C5CCC(=O)NC5=O)C7=O)C6)CC4)ncc3Cl)ccc2n(C(C)C)c1=O (stereo not shown) [Compound 80]", "value type": "Dmax", "result": "50 to 70%"}
{"compound": "CC(C)n1c(=O)c(OCC(=O)N(C)C)cc2cc(Nc3nc(N4CCC(CN5CCC6(CC5)CN(c5ccc7c(c5)C(=O)N(C5CCC(=O)NC5=O)C7=O)C6)CC4)ncc3Cl)ccc21 (stereo not shown) [Compound 55]", "value type": "Dmax", "result": "≥ 70%"}
{"compound": "CNC(=O)COc1cc2cc(Nc3nc(N4CCC(F)(CN5CCC6(CC5)CCN(c5cccc7c5C(=O)N(C5CCC(=O)NC5=O)C7=O)CC6)CC4)ncc3Cl)ccc2n(C(C)C)c1=O (stereo not shown) [Compound 62]", "value type": "Dmax", "result": "≥ 70%"}
{"compound": "CNC(=O)COc1cc2cc(Nc3nc(N4CCC(OC5CCC6(CC5)CN(c5cc7c(cc5F)C(=O)N(C5CCC(=O)NC5=O)C7)C6)CC4)ncc3Cl)ccc2n(C(C)C)c1=O (stereo not shown) [Compound 123]", "value type": "Dmax", "result": "≥ 70%"}

Ask: Indicate the recorded Dmax value for this compound: CNC(=O)COc1cc2cc(Nc3nc(N4CCC(O[C@H]5C[C@H](N6CCC(c7ccc8c(c7Cl)CN(C7CCC(=O)NC7=O)C8=O)CC6)C5)CC4)ncc3Cl)ccc2n(C(C)C)c1=O (stereo partly shown) [Compound 163]
Reply: ≥ 70%

Ask: Indicate the recorded Dmax value for this compound: CNC(=O)COc1cc2cc(Nc3nc(N4CCC(F)(CN5CCC6(CC5)CCN(c5c(F)ccc7c5CN(C5CCC(=O)NC5=O)C7=O)CC6)CC4)ncc3Cl)ccc2n(C(C)C)c1=O (stereo not shown) [Compound 151]
Reply: 50 to 70%

Ask: Indicate the recorded Dmax value for this compound: CNC(=O)COc1cc2cc(Nc3nc(N4CCC5(CC4)CN(C(C)(C)C4CCN(c6cccc7c6CN(C6CCC(=O)NC6=O)C7=O)CC4)C5)ncc3Cl)ccc2n(C(C)C)c1=O (stereo not shown) [Compound 36]
Reply: ≥ 70%

Ask: Indicate the recorded Dmax value for this compound: CNC(=O)COc1cc2cc(Nc3nc(N4CCN(CC5CCN(c6cc(F)c7c(c6)CN(C6CCC(=O)NC6=O)C7=O)CC5)CC4)ncc3Cl)ccc2n(C(C)C)c1=O (stereo not shown) [Compound 18]
Reply: 50 to 70%

Ask: Indicate the recorded Dmax value for this compound: CNC(=O)COc1cc2cc(Nc3nc(N4CCC(O[C@H]5C[C@H](N6CCC(c7cc8c(cc7OC(C)C)C(=O)N(C7CCC(=O)NC7=O)C8=O)CC6)C5)CC4)ncc3Cl)ccc2n(C(C)C)c1=O (stereo partly shown) [Compound 159]
Reply: ≥ 70%

----------
Listing of entries alongside the reported DC50.
test system: BCL6 (Homo sapiens)
Construct: endogenous in cells; host or cells: T47D breast cancer epithelial cells
test summary: Immunofluorescence protocol for high content imaging of BCL6 (degradation) in T47D cells, 3 days compound treatment
Type: cell-based
test parameters: read-out: Mean DC50 (nM)* category

Take a look at these entries with their results.
{"molecule": "CNC(=O)COc1cc2cc(Nc3cc(N4CCC(O[C@H]5C[C@H](N6CCC(c7ccc8c(c7)C(=O)N(C7CCC(=O)NC7=O)C8=O)CC6)C5)CC4)ncc3Cl)ccc2n(C(C)C)c1=O (stereo partly shown)", "test system": "BCL6 (Homo sapiens)", "value type": "DC50", "result": "10 to 50 nM"}
{"molecule": "CNC(=O)COc1cc2cc(Nc3nc(N4CCC(O[C@H]5C[C@H](N6CCN(c7cc8c(cc7F)C(=O)N(C7CCC(=O)NC7=O)C8=O)[C@H](C)C6)C5)CC4)ncc3Cl)ccc2n(C(C)C)c1=O (stereo partly shown)", "test system": "BCL6 (Homo sapiens)", "value type": "DC50", "result": "50 to 100 nM"}
{"molecule": "CNC(=O)COc1cc2cc(Nc3nc(N4CCC(O[C@H]5C[C@H](N6[C@H](C)CN(c7ccc8c(c7)CN(C7CCC(=O)NC7=O)C8=O)C[C@H]6C)C5)CC4)ncc3Cl)ccc2n(C(C)C)c1=O (stereo partly shown)", "test system": "BCL6 (Homo sapiens)", "value type": "DC50", "result": "< 10 nM"}

# ---- query molecule ----
Ask: Indicate the recorded DC50 value for this molecule: CNC(=O)COc1cc2cc(Nc3nc(N4CCC(O[C@H]5C[C@H](N6CCC(c7ccc8c(c7F)[C@H](C)N(C7CCC(=O)NC7=O)C8=O)CC6)C5)CC4)ncc3Cl)ccc2n(C(C)C)c1=O (stereo partly shown)
Reply: < 10 nM

----------
test system: BCL6 (Homo sapiens)
Construct: endogenous in cells; host or cells: T47D breast cancer epithelial cells
test summary: Immunofluorescence protocol for high content imaging of BCL6 (degradation) in T47D cells, 3 days compound treatment
Format: cell-based
test parameters: T47D cells, 3 days compound treatment, read-out: Mean DC50 (nM)* category
value type: DC50

{"compound": "CNC(=O)COc1cc2cc(Nc3nc(N4CCC(CN5CC6(CCN(c7cc8c(cc7OC)C(=O)N(C7CCC(=O)NC7=O)C8)CC6)C5)CC4)ncc3Cl)ccc2n(C(C)C)c1=O (stereo not shown) [Compound 85]", "DC50": "< 10 nM"}
{"compound": "CNC(=O)COc1cc2cc(Nc3nc(N4CCC5(CC4)CN(C(C)(C)C4CCN(c6cccc7c6CN(C6CCC(=O)NC6=O)C7=O)CC4)C5)ncc3Cl)ccc2n(C(C)C)c1=O (stereo not shown) [Compound 36]", "DC50": "< 10 nM"}
{"compound": "CNC(=O)COc1cc2cc(Nc3nc(N4CCC(O[C@H]5C[C@H](N6CCC(c7ccc8c(c7C)C(=O)N(C7CCC(=O)NC7=O)C8=O)CC6)C5)CC4)ncc3Cl)ccc2n(C(C)C)c1=O (stereo partly shown) [Compound 167]", "DC50": "< 10 nM"}
{"compound": "CNC(=O)COc1cc2cc(Nc3nc(N4CCOC5(CN(CCC6CCN(c7cccc8c7C(=O)N(C7CCC(=O)NC7=O)C8=O)CC6)C5)C4)ncc3Cl)ccc2n(C(C)C)c1=O (stereo not shown) [Compound 16]", "DC50": "≥ 100 nM"}
{"compound": "CNC(=O)COc1cc2cc(Nc3nc(N4CCC(O[C@H]5C[C@H](N6CCC(c7ccc8c(c7F)CN(C7CCC(=O)NC7=O)C8=O)CC6)C5)CC4)ncc3Cl)ccc2n(C(C)C)c1=O (stereo partly shown) [Compound 81]", "DC50": "< 10 nM"}
{"compound": "CNC(=O)COc1cc2cc(Nc3nc(N4CCC5(CCN(CC6(F)CCN(c7cccc8c7C(=O)N(C7CCC(=O)NC7=O)C8=O)CC6)CC5)CC4)ncc3Cl)ccc2n(C(C)C)c1=O (stereo not shown) [Compound 63]", "DC50": "10 to 50 nM"}

# ---- query compound ----
Ask: Indicate the recorded DC50 value for this compound: CNC(=O)COc1cc2cc(Nc3nc(N4CCC(O[C@H]5C[C@H](N6CCN(c7ccc8c(c7C)C(=O)N(C7CCC(=O)NC7=O)C8=O)C[C@@H]6C)C5)CC4)ncc3Cl)ccc2n(C(C)C)c1=O (stereo partly shown) [Compound 194]
Reply: < 10 nM
